test system: HL-60; assay: NCI tumour cell line growth inhibition, 48 h
Active and inactive are the calls of the source. Cut-off read from the data, not from the text of the source: active = GI50 up to about 1.1 µM and inactive = higher.
Hi there, I'd appreciate the recorded GI50 for every entry that follows.

Recorded GI50, per entry:
N#CC(C#N)=Cc1cccc(Oc2ccccc2)c1 :: 18.5 µM (inactive)
Cc1ncc(C/N=C/c2ccc(Cl)cc2)c(N)n1 :: > 100 µM (inactive)
O=S(=O)(O)c1ccc2c(/N=N/c3ccc(/N=N/c4ccccc4)cc3)c(O)c(S(=O)(=O)O)cc2c1 :: > 100 µM (inactive)
O=C1NC(=O)C2C1N(Cc1ccccc1)C(=O)N2Cc1ccccc1 (configuration not stated) :: > 100 µM (inactive)
O=c1cccccc1NCCCCNc1cccccc1=O :: 49.7 µM (inactive)

Lab note: each compound below needs its GI50 filled in.
1. Cc1nn(C(=O)c2ccccc2O)c2c1C(c1ccc(O)cc1O)SC(=N)N2 (configuration not stated)
2. O=C(Sc1c(-c2ccccc2)c(=O)n(-c2ccccc2)c(=S)n1-c1ccccc1)c1ccc(Cl)cc1
3. COc1ccc2c(c1)CC1Cc3ccccc3CCN1C2 (configuration not stated)
4. O=C(Nc1c(O)[nH]c(=S)[nH]c1=O)c1ccccc1
5. C=C(C)[C@@H]1CCC2=C[C@H](C/C(C)=C\C3=CC(C)=C(O3)[C@H]1O)OC2=O

1. 5.52 µM (inactive)
2. > 100 µM (inactive)
3. 53.1 µM (inactive)
4. > 100 µM (inactive)
5. > 100 µM (inactive)

Hey, quick one: what's GI50 for each of these?
1. N#CC1(C#N)NC(c2cccnc2)C(C#N)(C#N)NC1c1cccnc1 (configuration not stated)
2. CC(C)(Cc1ccccc1)NC1=NCCO1

["> 100 µM (inactive)", "> 100 µM (inactive)"]

Parameter requested: GI50. Apply to each item below.
1. CC1CCc2c(c(CC3CC(=O)NC(=O)C3)nn2-c2ccccc2)C1 (configuration not stated)
2. Cc1ccc(/N=N\c2c(O)c(S(=O)(=O)O)cc3cc(S(=O)(=O)O)ccc23)c(C)c1
3. COc1ccc(C2Oc3ccc(Cl)cc3C=C2[N+](=O)[O-])cc1 (configuration not stated)
4. CCCC(CCC(N)=O)(CCC(N)=O)[N+](=O)[O-]
5. COc1ccc(Nc2nc3cc(C(F)(F)F)ccc3nc2C(=O)O)cc1OC
6. Fc1cc(-c2cc(-c3ccccc3)n[nH]2)c(Cl)cc1Cl
7. CC(=O)OCC1OC(n2c(-c3ccc(C)cc3)cc(-c3ccco3)c(C#N)c2=S)C(OC(C)=O)C(OC(C)=O)C1OC(C)=O (configuration not stated)

1: > 100 µM (inactive); 2: > 100 µM (inactive); 3: > 100 µM (inactive); 4: > 100 µM (inactive); 5: 28.4 µM (inactive); 6: 28.9 µM (inactive); 7: > 100 µM (inactive)

For every item in the list below, what is its measured GI50?
1. CC(NC(=O)C(Cc1ccc(OC(=O)c2ccccc2)cc1)NC(=O)OC(C)(C)C)C(=O)NCC(=O)NC(Cc1ccccc1)NC(=O)OCc1ccccc1 (configuration not stated)
2. O=C1OC(C2Cc3ccccc3C2=O)c2ccccc21 (configuration not stated)

["> 100 µM (inactive)", "> 100 µM (inactive)"]

Provide GI50 values for the following items, in order.
1. C/C(=N\NC(=S)N/N=C(\C)c1ccccn1)c1ccccn1
2. O=C1N/C(=N/N=C/c2ccccc2)N/C1=C\c1cccs1
3. O=C(CC12C3C4C1C1C2C3C41CC(=O)NO)NO (configuration not stated)
4. C/C(=N\N=C(/S)N1CC2CCC(CC2)C1)c1cccc[n+]1[O-]

1: > 100 µM (inactive); 2: 12.3 µM (inactive); 3: 36.9 µM (inactive); 4: 0.23 µM (active)

List the reported GI50 of each compound below.
1. O=C(N/N=C\c1ccc([N+](=O)[O-])cc1)Nc1cccc2ccccc12
2. COc1cc(/C=C/C=C2\CC/C(=C\C=C\c3ccc(O)c(OC)c3)C2=O)ccc1O

1: > 31.6 µM (inactive); 2: 7.41 µM (inactive)

// batch mode: one GI50 value per listed entry
1. CC1C(=O)CCC1C(Sc1ccccc1)(Sc1ccccc1)Sc1ccccc1 (configuration not stated)
2. CC(=O)O[C@@H]1[C@H]2O[C@H]2[C@H]2O[C@@]2(COC(=O)c2ccccc2)[C@H]1OC(C)=O
3. CN[C@H](C)[C@@H](OC)c1ccccc1
4. Cc1ccc(C)c(COCCOCn2ccc(N)nc2=O)c1

["5.83 µM (inactive)", "> 100 µM (inactive)", "> 100 µM (inactive)", "18.5 µM (inactive)"]

For each entry beneath this line, provide reported GI50.
1. Nc1c(Cl)ncnc1NCCCCCCCCCCCCNc1ncnc(Cl)c1N
2. COc1ccccc1/N=C1\SCCN1C(=S)Nc1ccc(S(=O)(=O)/N=C/N(C)C)cc1
3. O=C1C=CC=CC2CC=C[C@@H](O)C12 (some centres not stated)
4. COC(=O)C1(Cc2ccccc2)Cc2cc3c(cc2C1O)CCC3 (configuration not stated)
5. CC(=O)OCC(OC(C)=O)C(OC(C)=O)C(OC(C)=O)C(=O)CNn1c(-c2ccccc2Cl)nc2ccc(Br)cc2c1=O (configuration not stated)
6. COc1cccc2c1[C@H]1OC(=O)NC1CCCCC2 (some centres not stated)
7. Cc1cc(N)c2cc(NC(=O)CCCCCCCCC(=O)Nc3ccc4nc(C)cc(N)c4c3)ccc2n1
8. O=C1C(Cl)N(c2ccccc2)C1c1c[nH]c2ccccc12 (configuration not stated)

0.051 µM (active)
27.4 µM (inactive)
15.5 µM (inactive)
24.5 µM (inactive)
23.8 µM (inactive)
> 100 µM (inactive)
1.54 µM (inactive)
> 100 µM (inactive)
